PROTOCOL_SUMMARY: Pharmacokinetic evaluation in humans
Type: in vivo
PARTICULARS: human, plasma, 300 mg, noncompartmental, read-out: AUCinf, Median
RECORDED_ENDPOINT: AUC(0-inf) (ng·h/mL)
Answer in ng·h/mL, number only, no unit symbol.

Asked: What measured AUC(0-inf) goes with C[C@H](NC(=O)[C@H](CCC(=O)O)NC(=O)CCCC[C@@H]1CCSS1)C(=O)O [RLip-EA-OH, N-(R)-lipoyl-L-glutamyl-L- alanine] ?
Given back: 16500

====

PROTOCOL_SUMMARY: Pharmacokinetic evaluation in humans
Format: in vivo
PARTICULARS: human, plasma, 300 mg, noncompartmental, read-out: AUCinf, Mean (SD)
RECORDED_ENDPOINT: AUC(0-inf) (ng·h/mL)
Only the number, expressed in ng·h/mL, is required.

Asked: Look at this compound and give its reported AUC(0-inf). C[C@H](NC(=O)[C@H](CCC(=O)O)NC(=O)CCCC[C@@H]1CCSS1)C(=O)O [RLip-EA-OH, N-(R)-lipoyl-L-glutamyl-L- alanine]
Given back: 16500

====

PROTOCOL_SUMMARY: Pharmacokinetic evaluation in humans
Assay type: in vivo
PARTICULARS: human, plasma, 20 mg, noncompartmental, read-out: CL, Minimum, maximum
RECORDED_ENDPOINT: clearance

Asked: What does the record list as clearance for C[C@H](NC(=O)[C@H](CCC(=O)O)NC(=O)CCCC[C@@H]1CCSS1)C(=O)O [RLip-EA-OH, N-(R)-lipoyl-L-glutamyl-L- alanine] ?
Given back: 465 to 713 mL/min

====

PROTOCOL_SUMMARY: Pharmacokinetic evaluation in humans
Assay type: in vivo
PARTICULARS: human, plasma, 20 mg, compartmental, read-out: AUCinf, Mean (SD)
RECORDED_ENDPOINT: AUC(0-inf) (ng·h/mL)
Return type: number; implicit unit ng·h/mL.

Asked: Given the entry C[C@H](NC(=O)[C@H](CCC(=O)O)NC(=O)CCCC[C@@H]1CCSS1)C(=O)O [RLip-EA-OH, N-(R)-lipoyl-L-glutamyl-L- alanine] , report its measured AUC(0-inf).
Given back: 621

====

PROTOCOL_SUMMARY: Pharmacokinetic evaluation in humans
Assay type: in vivo
PARTICULARS: human, plasma, 60 mg, noncompartmental, read-out: t1/2, Mean (SD) (converted)
RECORDED_ENDPOINT: half-life (h)
Response body: numeric value in h, unit text excluded.

Asked: # query: half-life of entry C[C@H](NC(=O)[C@H](CCC(=O)O)NC(=O)CCCC[C@@H]1CCSS1)C(=O)O [RLip-EA-OH, N-(R)-lipoyl-L-glutamyl-L- alanine]
Given back: 1.21

====

PROTOCOL_SUMMARY: Pharmacokinetic evaluation in humans
Assay type: in vivo
PARTICULARS: human, plasma, 300 mg, compartmental, read-out: Estimated Cmax, Median
RECORDED_ENDPOINT: Cmax (ng/mL)
The reply should be a number in ng/mL, with the unit left off.

Asked: Name the recorded Cmax for C[C@H](NC(=O)[C@H](CCC(=O)O)NC(=O)CCCC[C@@H]1CCSS1)C(=O)O [RLip-EA-OH, N-(R)-lipoyl-L-glutamyl-L- alanine] .
Given back: 43400

====

PROTOCOL_SUMMARY: Pharmacokinetic evaluation in humans
Format: in vivo
PARTICULARS: human, plasma, 300 mg, noncompartmental, read-out: AUCinf, Minimum, maximum
RECORDED_ENDPOINT: AUC(0-inf)

Asked: Give the measured AUC(0-inf) of C[C@H](NC(=O)[C@H](CCC(=O)O)NC(=O)CCCC[C@@H]1CCSS1)C(=O)O [RLip-EA-OH, N-(R)-lipoyl-L-glutamyl-L- alanine] .
Given back: 11600 to 23100 ng·h/mL

====

PROTOCOL_SUMMARY: Pharmacokinetic evaluation in humans
Type: in vivo
PARTICULARS: human, plasma, 60 mg, noncompartmental, read-out: AUCinf, Mean (SD)
RECORDED_ENDPOINT: AUC(0-inf) (ng·h/mL)
Hi! Could you send only the number? It should be in ng·h/mL, unit omitted.

Asked: Can you share its AUC(0-inf)? I mean this compound: C[C@H](NC(=O)[C@H](CCC(=O)O)NC(=O)CCCC[C@@H]1CCSS1)C(=O)O [RLip-EA-OH, N-(R)-lipoyl-L-glutamyl-L- alanine]
Given back: 2260

====

PROTOCOL_SUMMARY: Pharmacokinetic evaluation in humans
Format: in vivo
PARTICULARS: human, plasma, 60 mg, compartmental, read-out: t1/2, Minimum, maximum
RECORDED_ENDPOINT: half-life

Asked: Which measured half-life value corresponds to C[C@H](NC(=O)[C@H](CCC(=O)O)NC(=O)CCCC[C@@H]1CCSS1)C(=O)O [RLip-EA-OH, N-(R)-lipoyl-L-glutamyl-L- alanine] ?
Given back: 66 to 156 min

====

PROTOCOL_SUMMARY: Pharmacokinetic evaluation in humans
Type: in vivo
PARTICULARS: human, plasma, 60 mg, noncompartmental, read-out: Cmax, Median
RECORDED_ENDPOINT: Cmax (ng/mL)
Give a bare numeral; the unit ng/mL is implied.

Asked: So what's the measured Cmax for this one? C[C@H](NC(=O)[C@H](CCC(=O)O)NC(=O)CCCC[C@@H]1CCSS1)C(=O)O [RLip-EA-OH, N-(R)-lipoyl-L-glutamyl-L- alanine]
Given back: 6840

====

PROTOCOL_SUMMARY: Pharmacokinetic evaluation in humans
Type: in vivo
PARTICULARS: human, plasma and urine, 60 mg, noncompartmental, read-out: Renal clearance, Mean (SD) (converted)
Procedure: Plasma and urine RLip-EA-OH concentrations were measured at BASi, Inc. (West Lafayette, Ind.) using a LC/MS/MS method with positive turbo ion spray, in the multiple reaction-monitoring mode. The quantifiable range for human plasma was 1.00 to 500 ng/mL and QC samples were included at 3.00, 75.0 and 375 ng/mL. The PK population included subjects who received RLip-EA-OH and had ≧1 post-dose PK measurement. […]
RECORDED_ENDPOINT: CL renal (mL/min)
Number in mL/min, nothing else.

Asked: Quick check: CL renal of C[C@H](NC(=O)[C@H](CCC(=O)O)NC(=O)CCCC[C@@H]1CCSS1)C(=O)O [RLip-EA-OH, N-(R)-lipoyl-L-glutamyl-L- alanine] ?
Given back: 181

====

PROTOCOL_SUMMARY: Pharmacokinetic evaluation in humans
Type: in vivo
PARTICULARS: human, plasma and urine, 300 mg, noncompartmental, read-out: Renal clearance, Median (converted)
RECORDED_ENDPOINT: CL renal (mL/min)
Write down the numeric answer in mL/min and omit the unit.

Asked: // lookup CL renal for C[C@H](NC(=O)[C@H](CCC(=O)O)NC(=O)CCCC[C@@H]1CCSS1)C(=O)O [RLip-EA-OH, N-(R)-lipoyl-L-glutamyl-L- alanine]
Given back: 140

====

PROTOCOL_SUMMARY: Pharmacokinetic evaluation in humans
Type: in vivo
PARTICULARS: human, plasma, 150 mg, noncompartmental, read-out: Cmax, Mean (SD)
RECORDED_ENDPOINT: Cmax (ng/mL)
Please reply with the bare figure in ng/mL and do not write the unit itself.

Asked: Cmax lookup needed for C[C@H](NC(=O)[C@H](CCC(=O)O)NC(=O)CCCC[C@@H]1CCSS1)C(=O)O [RLip-EA-OH, N-(R)-lipoyl-L-glutamyl-L- alanine] , thanks.
Given back: 17100

====

PROTOCOL_SUMMARY: Pharmacokinetic evaluation in humans
Assay type: in vivo
PARTICULARS: human, plasma and urine, 20 mg, noncompartmental, read-out: Renal clearance, Minimum, maximum
RECORDED_ENDPOINT: CL renal

Asked: Entry C[C@H](NC(=O)[C@H](CCC(=O)O)NC(=O)CCCC[C@@H]1CCSS1)C(=O)O [RLip-EA-OH, N-(R)-lipoyl-L-glutamyl-L- alanine] : reported CL renal = ?
Given back: 80.8 to 255 mL/min

====

PROTOCOL_SUMMARY: Pharmacokinetic evaluation in humans
Type: in vivo
PARTICULARS: human, plasma, 20 mg, compartmental, read-out: CL, Minimum, maximum
RECORDED_ENDPOINT: clearance

Asked: State the recorded clearance for this entry: C[C@H](NC(=O)[C@H](CCC(=O)O)NC(=O)CCCC[C@@H]1CCSS1)C(=O)O [RLip-EA-OH, N-(R)-lipoyl-L-glutamyl-L- alanine]
Given back: 423 to 703 mL/min

====

PROTOCOL_SUMMARY: Pharmacokinetic evaluation in humans
Assay type: in vivo
PARTICULARS: human, plasma, 300 mg, compartmental, read-out: Vss, Median
RECORDED_ENDPOINT: Vd (L)
Number only, in L; omit the unit.

Asked: Requested read-out: Vd. Entry: C[C@H](NC(=O)[C@H](CCC(=O)O)NC(=O)CCCC[C@@H]1CCSS1)C(=O)O [RLip-EA-OH, N-(R)-lipoyl-L-glutamyl-L- alanine]
Given back: 11
